B1: library; a variant is named by its letters at N, in order (parent)
chain: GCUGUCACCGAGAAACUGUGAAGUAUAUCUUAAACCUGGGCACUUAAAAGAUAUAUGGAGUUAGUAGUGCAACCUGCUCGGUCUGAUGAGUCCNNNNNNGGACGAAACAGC

# Variants of: B1
# experiment-summary: normalized RNA/DNA level with ligand (relative to sTRSVctl = 100) (log10 (% of sTRSVctl)); HEK293T; ligand: cyclic di-GMP (c-di-GMP-II aptamer); ligand concentration (+) RNA-Seq: 1 mM; higher = less ribozyme self-cleavage, higher mRNA level
# assay-conditions: reporter: mCherry (pCS4076), ligand present: yes
Provide the recorded normalized RNA/DNA level with ligand (log10) for the entries that follow.
Field format: numeric only.

## Task Which normalized RNA/DNA level with ligand (log10) is reported for this variant? UUCUUC
## Result 1.89

## Task Which normalized RNA/DNA level with ligand (log10) is reported for this variant? ACAUAG
## Result 1.66

## Task Which normalized RNA/DNA level with ligand (log10) is reported for this variant? GCGCGU
## Result 1.75

## Task Which normalized RNA/DNA level with ligand (log10) is reported for this variant? CGCUGA
## Result 1.72
